# experimental.system: CYP 3A4 (Homo sapiens)
# Sequence (P08684 whole entry): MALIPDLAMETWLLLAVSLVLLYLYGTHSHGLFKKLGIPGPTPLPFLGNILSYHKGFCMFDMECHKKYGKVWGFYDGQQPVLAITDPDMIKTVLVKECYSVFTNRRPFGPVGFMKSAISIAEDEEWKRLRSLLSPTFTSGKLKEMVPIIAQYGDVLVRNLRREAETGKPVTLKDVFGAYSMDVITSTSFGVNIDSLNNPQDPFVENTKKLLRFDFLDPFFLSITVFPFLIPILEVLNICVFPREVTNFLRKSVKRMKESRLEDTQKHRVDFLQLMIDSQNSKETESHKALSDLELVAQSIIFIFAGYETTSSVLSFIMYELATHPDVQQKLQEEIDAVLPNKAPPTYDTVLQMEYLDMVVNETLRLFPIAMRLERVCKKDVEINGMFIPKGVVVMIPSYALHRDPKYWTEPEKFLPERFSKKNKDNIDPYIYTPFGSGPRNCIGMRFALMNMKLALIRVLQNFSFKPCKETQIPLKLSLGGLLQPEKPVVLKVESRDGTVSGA
pIC50: −log10 of the molar value.

molecule	pIC50
CCCN1CC(Oc2ccc([C@@H]3c4[nH]c5ccccc5c4C[C@@H](C)N3CC(C)(C)F)cc2)C1 [compound 21]	< 5.00

----------
# assay.procedure: Single-dose pharmacokinetics, dog
# Type: in vivo
# test.context: Beagle, serum, iv, 10 mg/kg

sample.smiles	output.unit	AUC
CCCN1CC(Oc2ccc([C@@H]3c4[nH]c5ccccc5c4C[C@@H](C)N3CC(C)(C)F)cc2)C1	ng·h/mL	41300

----------
# assay.procedure: Human hepatocyte stability
# Format: in vitro ADME
# test.context: hepatocytes
Returns one of Condition met or Condition not met; Condition met when half-life is >= 3 h.

compound	qualitative.label
C[C@@H]1Cc2c([nH]c3ccccc23)[C@@H](c2ccc(OCCN3CC(CF)C3)c(F)c2)N1CC(C)(C)F [compound 26]	Condition met
C[C@@H]1Cc2c([nH]c3ccccc23)[C@@H](c2c(F)cc(OCCN3CC(CF)C3)cc2F)N1CC(C)(C)F [compound 30]	Condition met
CCCN1CC(Oc2ccc([C@@H]3c4[nH]c5ccccc5c4C[C@@H](C)N3CC(C)(C)F)cc2)C1 [compound 21]	Condition not met
CCCN1CC(Oc2cc(F)c([C@@H]3c4[nH]c5ccccc5c4C[C@@H](C)N3CC(C)(C)F)c(F)c2)C1 [compound 32]	Condition met
CCCN1CC(Cc2cc(F)c([C@@H]3c4[nH]c5ccccc5c4C[C@@H](C)N3CC(C)(C)F)c(F)c2)C1 [compound 31]	Condition met
C[C@@H]1Cc2c([nH]c3ccccc23)[C@@H](c2ccc(OCCN3CC(CF)C3)cc2)N1CC(C)(C)F [compound 23]	Condition met
CCCN1CC(Oc2ccc([C@@H]3c4[nH]c5ccccc5c4C[C@@H](C)N3CC(F)(F)CO)cc2)C1 [compound 38]	Condition not met
CCCN1CC(Oc2ccc([C@@H]3c4[nH]c5ccccc5c4C[C@@H](C)N3C[C@@H](C)CO)cc2)C1 [compound 40]	Condition not met
CCCN1CC(Oc2ccc([C@@H]3c4[nH]c5ccccc5c4C[C@@H](C)N3CC(F)(F)COC)cc2)C1 [compound 41]	Condition not met

----------
# assay.procedure: Single-dose pharmacokinetics, dog
# Format: in vivo
# test.context: Beagle, serum, po, 10 mg/kg
measured.quantity: half-life

sample.smiles	measured.value
CCCN1CC(Oc2ccc([C@@H]3c4[nH]c5ccccc5c4C[C@@H](C)N3CC(C)(C)F)cc2)C1	106 h

----------
# assay.procedure: Single-dose pharmacokinetics, mouse
# Format: in vivo
# test.context: serum, po, 5 mg/kg

molecule	Tmax / h
CCCN1CC(Oc2ccc([C@@H]3c4[nH]c5ccccc5c4C[C@@H](C)N3CC(C)(C)F)cc2)C1 [compound 21]	1

----------
# assay.procedure: Single-dose pharmacokinetics, dog
# Type: in vivo
# test.context: Beagle, serum, iv, 10 mg/kg

molecule	output.unit	Cmax
CCCN1CC(Oc2ccc([C@@H]3c4[nH]c5ccccc5c4C[C@@H](C)N3CC(C)(C)F)cc2)C1 [compound 21]	ng/mL	4060

----------
Examples of compounds with documented Emax follow.
# experimental.system: ERα (Homo sapiens)
# Sequence (P03372 1-595): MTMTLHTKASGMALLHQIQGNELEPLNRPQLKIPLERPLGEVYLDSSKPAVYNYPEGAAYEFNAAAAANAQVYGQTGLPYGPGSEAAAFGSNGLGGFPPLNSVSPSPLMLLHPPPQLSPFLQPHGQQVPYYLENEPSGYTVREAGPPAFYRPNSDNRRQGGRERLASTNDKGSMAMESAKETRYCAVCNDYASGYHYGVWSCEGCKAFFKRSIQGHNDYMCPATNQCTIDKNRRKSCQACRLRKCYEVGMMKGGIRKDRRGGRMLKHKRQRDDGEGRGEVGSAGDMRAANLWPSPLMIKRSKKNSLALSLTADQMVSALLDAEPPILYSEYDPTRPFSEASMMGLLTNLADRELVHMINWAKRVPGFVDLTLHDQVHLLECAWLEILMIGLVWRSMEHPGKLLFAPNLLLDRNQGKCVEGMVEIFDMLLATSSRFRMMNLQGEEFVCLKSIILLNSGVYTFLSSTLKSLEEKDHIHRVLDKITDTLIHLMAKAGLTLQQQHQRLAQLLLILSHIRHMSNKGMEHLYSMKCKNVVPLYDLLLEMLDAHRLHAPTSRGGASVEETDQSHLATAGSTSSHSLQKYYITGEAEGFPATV
# assay.procedure: Alkaline phosphatase
# Assay type: cell-based
# test.context: Ishikawa, read-out: AP % E max, Ishikawa (ECC-1) cells, agonist mode, 72 h

compound	Emax, %
CCCN1CC(Oc2ccc([C@@H]3c4[nH]c5ccccc5c4C[C@@H](C)N3CC(F)(F)COC)cc2)C1	0.9
CCCN1CC(Oc2ccc([C@@H]3c4[nH]c5ccccc5c4C[C@@H](C)N3C[C@@H](C)CO)cc2)C1	0.4
C[C@]12CC[C@@H]3c4ccc(O)cc4C[C@@H](CCCCCCCCC[S+]([O-])CCCC(F)(F)C(F)(F)F)[C@H]3[C@@H]1CC[C@@H]2O (stereo partly drawn) [fulvestrant 3, fulvestrant, reference compound]	0.1
C[C@@H]1Cc2c([nH]c3ccccc23)[C@@H](c2ccc(OCCN3CC(CF)C3)c(F)c2)N1CC(C)(C)F	2.1
CCCN1CC(Cc2cc(F)c([C@@H]3c4[nH]c5ccccc5c4C[C@@H](C)N3CC(C)(C)F)c(F)c2)C1	5.4
CCCN1CC(Oc2ccc([C@@H]3c4[nH]c5ccccc5c4C[C@@H](C)N3CCC(C)(C)F)cc2)C1	0

----------
# experimental.system: ERα (Homo sapiens, UniProt P03372)
# assay.procedure: Reporter assay of gene transcription activity, ERα
# Type: cell-based
# test.context: ERα pIC50, agonist mode, agonist mode
pIC50: −log10 of the molar value.

molecule	pIC50
CCCN1CC(Oc2ccc([C@@H]3c4[nH]c5ccccc5c4C[C@@H](C)N3CC(C)(C)F)cc2)C1 [compound 21]	< 5.50

----------
# experimental.system: ERα LBD (Homo sapiens, UniProt P03372)
measured.quantity: log10 of IC50 (log10 of the value in nM)

sample.smiles	log10 of IC50
C[C@@H]1Cc2c([nH]c3ccccc23)[C@@H](c2c(F)cc(CCCN3CC(CF)C3)cc2F)N1CC(C)(C)F	0.40
CCCN1CC(Oc2ccc([C@@H]3c4[nH]c5ccccc5c4C[C@@H](C)N3CC(F)(F)COC)cc2)C1	0.00
CCCN1CC(Cc2ccc([C@@H]3c4[nH]c5ccccc5c4C[C@@H](C)N3CC(C)(C)F)cc2F)C1	0.30
CCCN1CC(Cc2cc(F)c([C@@H]3c4[nH]c5ccccc5c4C[C@@H](C)N3CC(C)(C)F)c(F)c2)C1	0.70
CCCN1CC(Oc2ccc([C@@H]3c4[nH]c5ccccc5c4C[C@@H](C)N3CC(C)(C)F)cc2)C1	0.30
C[C@@H]1Cc2c([nH]c3ccccc23)[C@@H](c2ccc(CCCN3CC(CF)C3)c(F)c2)N1CC(C)(C)F	0.60
CCCN1CC(Oc2ccc([C@@H]3c4[nH]c5ccccc5c4C[C@@H](C)N3C[C@@H](C)CO)cc2)C1	0.10
CCCN1CC(Oc2ccc([C@@H]3c4[nH]c5ccccc5c4C[C@@H](C)N3CCC(C)(C)F)cc2)C1	1.20
CCCN1CC(Oc2ccc([C@@H]3c4[nH]c5ccccc5c4C[C@@H](C)N3CCC(C)(C)O)cc2)C1	0.10

----------
# assay.procedure: Single-dose pharmacokinetics, rat
# Format: in vivo
# test.context: Sprague-Dawley, serum, iv, 0.5 mg/kg

sample.smiles	half-life
CCCN1CC(Oc2ccc([C@@H]3c4[nH]c5ccccc5c4C[C@@H](C)N3CC(C)(C)F)cc2)C1	420 min

----------
# assay.procedure: Single-dose pharmacokinetics, dog
# Assay type: in vivo
# test.context: Beagle, serum, po, 10 mg/kg
measured.quantity: bioavailability

sample.smiles	measured.quantity	measured.value
CCCN1CC(Oc2ccc([C@@H]3c4[nH]c5ccccc5c4C[C@@H](C)N3CC(C)(C)F)cc2)C1	bioavailability	89%

----------
# assay.procedure: Plasma protein binding, rapid equilibrium dialysis, mouse plasma
# Format: in vitro ADME
# test.context: undiluted plasma

sample.smiles	fraction unbound at 4 h, 1 µM
C[C@@H]1Cc2c([nH]c3ccccc23)[C@@H](c2c(F)cc(OCCN3CC(CF)C3)cc2F)N1CC(C)(C)F	0.0004
CCCN1CC(Oc2cc(F)c([C@@H]3c4[nH]c5ccccc5c4C[C@@H](C)N3CC(C)(C)F)c(F)c2)C1	0.0001
C[C@@H]1Cc2c([nH]c3ccccc23)[C@@H](c2ccc(OCCN3CC(CF)C3)cc2)N1CC(C)(C)F	0.0017
CCCN1CC(Oc2ccc([C@@H]3c4[nH]c5ccccc5c4C[C@@H](C)N3CC(C)(C)F)cc2)C1	0.0006

----------
# assay.procedure: Single-dose pharmacokinetics, mouse
# Type: in vivo
# test.context: serum, iv, 0.5 mg/kg

compound	clearance [mL/min/kg]
CCCN1CC(Oc2ccc([C@@H]3c4[nH]c5ccccc5c4C[C@@H](C)N3CC(C)(C)F)cc2)C1 [compound 21]	51.7
